protocol-text: yeast display, Sf9 membrane polyspecificity reagent, FACS + sequencing; frameworks hold sequencing errors

sequence	polyreactivity (PSR sort gate)
QVQLVESGGGLVQAGGSLRLSCAASGGTFLYYAMGWYRQAPGKERELVAAISSSTGSTNYADSVKGRFTISRDNAKNTVYLQMNSLKPEDTAVYYCAAAPHRHSWYYTRHPYFCMDYWGQGTQVTVSS	low polyreactivity
QVQLVESGGGLVQAGGSLRLSCAASGSTLIEYAKGWYRQAPGKERELVARISKSGDSTYYADSVKGRFTISRDNAKNTVYLQMNSLKPEDTAVYYCAKYHRDGFYRSYWFRYDYWGQGTQVTVSS	low polyreactivity
QVQLVESGGGLVQAGGSLRLSCAASGFTFFRNAMGWYRQAPGKERELVAAISGSGGSTYYADSVKGRFTISRDNATNTVYLQMNSLIPVDTAVYYCATYSYPAKVREAYNYWGQGTQVTVSS	low polyreactivity
QVQLVESGGGLVQAGGSLRLSCAASGRIIARNAMGWYRQAPGKEREFVAAITARGARTYYADSVKGRFTISRDNAKNTVYLQMNSLKPEDTAVYYCAVVQGNVYYTGDDYWGQGTQVTVSS	high polyreactivity
QVQLVESGGGLVQAGGSLRLSCDASGSIFPYYAMGWYRQAPGKERELVAAITSSDGITYYADSVKGRFTISRDNAKNTVYLQMNSLKPEDTAVYYCAAEVYVADWLTEFYYWGQGTQVTVSS	high polyreactivity
QVQLVESGGGLVQAGGSLRLSCPDSGRIFFLYAMGWYRQAPGKERELVAAITKSGGSTYADSVKGRFTISRDNAKNTVFLQMNSLIPEDTAVYYCAADLFTDLYDSWGQGTQVTVSS	low polyreactivity
QVQLVESGGGLVQAGGSLRLSCAASGSIFSSYVMVWYRQAPGKERELVAAISSSGGSTYYADSVKGRFTISRDNAKNTVYLQMNSLKPEDTAVYYCAARSYYSYYLMYYWGQGTQVTVSS	high polyreactivity
QVQLVESGGGLVQAGGSLRLSCAASGSIFKYYVMGWYRQAPGKEREFVAVISWSGGTTYYADSVKGRFTISRDNAKNTVYLQMNSLKPEDTAVYDCNKDYIYVGVPRYRSINHDYWGQGTQVTVSS	low polyreactivity
QVQLVESAGGLVQAGVSLRLSCAASGLTFVQYAMGWYIQAPGKERELVAAISRSGGSTYYADSVKGRFTISRDNAKNTVYLQMNSMKPEDTAVYYCNAVIWLTSSEYWGQGTQVTVSS	high polyreactivity
QVQLIESGGGLVQAGGSLRLSCAASGFTFYYNTMGWYRQAPGKERELVAAITRSVGSTYYADSVKGRFTISRDNAKNTVYLQMNSLKPEDTAVYYCAARRLGYYRKVKELDYWGQGTQVTVSS	high polyreactivity
QVQLQESGGGLVQAGGSLRLSCAARGNIFLGDTMGWYRQAPGKEREFVAGIARGGNPYYADSVKGRFTISRNNAKNTVYLQKNSLKPVDTAVHYCAVQRSHASDYNYWGQGTQVTVSS	low polyreactivity
QVQLVESGGGLVQAGGSLRLSCAASGFTFNLYDMGWYRQAPGKERELVAAINWSGGTYYADSVKGRFTISRDNAKNTVYLQMNSLKPEDPAVYYCAADFPYTPWSYHHHVWSPDFDYWGQGTQVTVSS	low polyreactivity
QVQLVESGGGLVQAGGSLRLSCAASGGIFYSNGMGWYRQAPGKERELVAAITGGDITDYADSVKGRFTISRDNAKNTVYLQMNSLKPEDTAVYFCAVESYPPDYGPRFGSWGQGTQVTVSS	low polyreactivity
